pIC50: −log10 of the molar value.
The following molecules were reported with pIC50 values on Serine/threonine-protein kinase Chk1 (Homo sapiens) in different studies.

Recorded pIC50, per entry:
[Q] Input `O=C(Nc1cnn(Cc2ccc(F)nc2)c1)c1c[nH]c(=O)c(-c2cc3ccccc3[nH]2)c1` , output reported pIC50.
[A] 6.30 to 7.00

[Q] Identify measured pIC50 corresponding to `O=c1c(NCc2cccc(O)c2)c(Nc2ccc(O)c(-c3ccccc3)c2)c1=O`
[A] < 6.00

# context switch: different molecule, same pIC50
[Q] Please report pIC50 for the following molecule: `O=c1c(NCc2cccc(O)c2)c(Nc2cc3nc[nH]c3cc2Cl)c1=O`
[A] < 6.00
